FYI, the data here is from a melting point compilation (Tetko et al.; mined from patent text by program, amines drawn as free bases though some values may be those of a salt).

Parameter: melting point. Scope: all listed entries.

Nc1ccc(Cc2ccccc2)cn1
79 to 80 °C

Challenge: // query melting point value for entry CON=Cc1ccc(-c2ccccc2NC(=O)c2c(C)nn(C)c2F)cc1F
Response given: 158 to 161 °C

Challenge: Same question, CC(=NOCCO)c1ccc(-c2ccccc2)cn1 this time
Response given: 66 to 68 °C

Challenge: Same question, Cc1nc2c(Cl)c(NC(=O)c3cc(Cl)ccc3Cl)ccc2s1 this time
Response given: 175 °C

Challenge: Same question, COC(=O)c1cc(-c2ccc(SC)cc2)nn(CC(C)C)c1=O this time
Response given: 90.4 to 91.4 °C

Challenge: Same question, COc1ccc(-c2nc(-c3ccc[nH]3)sc2-c2ccc(OC)cc2)cc1 this time
Response given: 132 to 134 °C

Challenge: Same question, COc1ccc(C(=O)CCC(=O)O)cc1CO this time
Response given: 217 to 218 °C

* * *

measurement_name: melting point

# annotated cases, reported melting point shown
O=C(Cl)c1cc2[nH]c3cc(Cl)ccc3c2o1
232 to 233 °C
CCOC(=O)c1ccc(CN2CCN(C3=NC4(C=CC(=O)C=C4)C(c4ccccc4)=C3)CC2)cc1
199 °C
CCOc1nc(C2CC2)nc(OC)c1C=O
93 to 94 °C
CCNCC1CCN(c2c(F)cc3c(=O)c(C(=O)O)cn(C4CC4)c3c2OC)C1 (stereo not given)
217 to 219 °C

Then there is this molecule:
Challenge: // query melting point value for entry COc1ccccc1Cn1c(-c2cc(OC)c(OC)c(OC)c2)nc2ccccc21
Response given: 136 °C

* * *

Parameter: melting point. Scope: all listed entries.

Challenge: // query melting point value for entry Cc1ccc(Cl)c(C2CCc3c(C)cnnc3C2)c1 (centres undefined)
Response given: 65 to 70 °C

* * *

Parameter: melting point. Scope: all listed entries.

# annotated cases, reported melting point shown
N#Cc1ncn2c1[C@@H]1CCCN1C(=O)c1c(Cl)cccc1-2
237 to 238 °C
N#CC(C(=O)C(F)(F)F)c1cc(Cl)cc(Cl)c1Cl (stereo unspecified)
160 to 163 °C
O=Cc1ccc2cc(O)ccc2c1
154 to 156 °C

Challenge: // query melting point value for entry CCOC(=O)c1cc2nc(C)n(Cc3ccccc3)c2[nH]1
Response given: 193 °C

* * *

Parameter: melting point. Scope: all listed entries.

# annotated cases, reported melting point shown
CCOC(=O)C1C(=O)C=C(c2ccc(OCC(=O)O)c(Cl)c2Cl)CC1c1ccccc1 (centres undefined)
91 °C
NC(=O)c1ccc(N2CCN(CCCC3OCCc4ccccc43)CC2)cc1 (racemic)
185 °C
CCCc1nc(C)n2nc(SC)nc2c1Cc1ccc([N+](=O)[O-])cc1
130 °C

Then there is this molecule:
Challenge: // query melting point value for entry O=c1[nH]c2ncc(-c3cn[nH]c3)nc2n1CC1CCOCC1
Response given: 238 to 240 °C

* * *

measurement_name: melting point

Challenge: // query melting point value for entry CN1CCN(c2ccc(Nc3nc(N)c(C(=O)c4c(Cl)cc(C(F)(F)F)cc4Cl)s3)cc2)CC1
Response given: 239 to 240 °C

Challenge: Same question, CC(C)(C)OC(=O)Nc1ccc(-c2ccc(Cl)c(Cl)c2)cc1N this time
Response given: 169 to 171 °C

Challenge: Same question, O=C1c2ccccc2C(=O)c2c1c(Oc1ccc(CCCO)cc1)c1ccccc1c2Oc1ccc(CCCO)cc1 this time
Response given: 218 to 220 °C

Challenge: Same question, CC(C)[C@H](NC(=O)OCc1ccccc1)C(=O)NNS(=O)(=O)c1ccccc1 this time
Response given: 253 to 255 °C

Challenge: Same question, O=C1c2ccc(F)cc2CC1c1ccc(F)cc1 (stereo not given) this time
Response given: 72 to 74 °C
